assay_target: human vasopressin V1b receptor (Homo sapiens)
Sequence (P47901 whole entry): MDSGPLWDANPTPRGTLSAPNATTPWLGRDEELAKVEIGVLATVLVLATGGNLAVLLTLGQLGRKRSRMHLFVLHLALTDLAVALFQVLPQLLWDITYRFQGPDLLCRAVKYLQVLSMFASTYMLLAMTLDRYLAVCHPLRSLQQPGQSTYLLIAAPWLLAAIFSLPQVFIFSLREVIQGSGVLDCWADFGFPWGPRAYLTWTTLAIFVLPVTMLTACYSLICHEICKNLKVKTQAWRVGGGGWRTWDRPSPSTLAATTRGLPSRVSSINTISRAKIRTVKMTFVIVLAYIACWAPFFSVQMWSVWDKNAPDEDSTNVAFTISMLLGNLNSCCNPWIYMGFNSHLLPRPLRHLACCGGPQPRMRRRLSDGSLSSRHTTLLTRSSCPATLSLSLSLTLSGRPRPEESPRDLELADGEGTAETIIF
pKi: −log10 of the molar value.
Recorded measurements of pKi, one per entry

Solved cases (2 shown):
compound	pKi
COc1ccc(S(=O)(=O)N2C(=O)C(c3cc(OC)ccc3OC)(N3CCN(c4ccncc4)CC3)c3cc(C#N)ccc32)c(OC)c1 (stereo not drawn) [Example 59]	> 7.30
COc1ccc(S(=O)(=O)N2C(=O)C(c3cc(C)ccc3OC)(N3CCN(c4ccncc4)CC3)c3cc(C#N)ccc32)c(OC)c1 (racemic) [Example 67]	> 7.30

Record CCOc1ccccc1C1(N2CCN(c3ccncc3)CC2)C(=O)N(S(=O)(=O)c2ccc(NC(C)=O)cc2)c2ccc(C#N)cc21 (stereo not drawn) [Example 46] , field pKi: 6.30 to 7.30

Record CCOc1ccccc1C1(N2CCN(c3ccncc3)CC2)C(=O)N(S(=O)(=O)c2ccc(C#N)cc2F)c2ccc(C#N)cc21 (racemic) [Example 68] , field pKi: 6.30 to 7.30

Record CCOc1ccccc1C1(N2CCCN(c3ccncc3)CC2)C(=O)N(S(=O)(=O)c2ccc(OC)cc2OC)c2ccc(C#N)cc21 (stereo not drawn) [Example 56] , field pKi: 6.30 to 7.30

Record CCOc1cc(F)ccc1C1(N2CCN(c3ccncc3)CC2)C(=O)N(S(=O)(=O)c2ccc(OC)cc2OC)c2ccc(C#N)cc21 (stereo not drawn) [Example 57] , field pKi: > 7.30
